Test system: OVCAR-5 ovarian
Assay: NCI tumour cell line growth inhibition, 48 h
readout.kind: TGI (µM)
Answer format: numeric, µM implied, no suffix.

COC(=O)c1c2c(c(C)[n+]([O-])c1C)C(=O)C(NCc1ccccc1)=CC2=O :: 6.22

## Input Recorded TGI of `CCOc1ccc(-c2nc3ccc(-c4nc5ccc(N6CCN(C)CC6)cc5[nH]4)cc3[nH]2)cc1` , please.
## Output 3.07

====

Tested on: BT-549 breast
Assay: NCI tumour cell line growth inhibition, 48 h
Attribute: TGI

A selection of reference data follows.
C/C(=C/CC[C@](C)(OC1OC(CO)C(O)C(O)C1O)[C@H]1CC[C@]2(C)[C@@H]1CC[C@@H]1[C@@]3(C)CC[C@H](O)C(C)(C)[C@@H]3C[C@H](O)[C@]12CO)CO (stereo not given in full) :: > 100 µM
CSc1nc(-c2ccccc2)[nH]c(=O)n1 :: > 100 µM

## Input Item under review: Nc1nc(Cl)c(N)c(NCC2(CO)CCC(OCc3ccccc3)C2)n1 (stereo not given) . Reported TGI?
## Output > 100 µM

## Input Reported TGI, molecule CC(=O)OC(C(=O)O)C(OC(C)=O)C(OC(C)=O)C(OC(C)=O)C(=O)O (stereo not given) : ____
## Output > 100 µM

## Input Dear colleague, I am looking for the recorded TGI of the following molecule: `CCCCCCCCCCCCCCCCn1cc[n+](C)c1`
## Output 1.61 µM

These data points were gathered from PubChem BioAssay (NCI).
